test system: BT-549 breast; experiment: NCI tumour cell line growth inhibition, 48 h
# key: entry, value: TGI
# number only, unit µM dropped from output

Answered examples (3):
CO/N=C1/c2cc(OC)ccc2-c2c(NOC)nc3ccccc3c21 : 49.6
N#CC(C(=O)c1ccccc1F)c1nc2cc(C(F)(F)F)ccc2s1 (stereo unspecified) : 69.4
CC1=C(C(=O)Nc2ccc(F)c(Cl)c2)C(c2cccc(Cl)c2)NC(=O)N1 (stereo unspecified) : 42

Look at this compound and give its reported TGI. Cc1c2cc[n+](C)cc2c(C)c2c1[nH]c1ccc(O)cc12 71.1

###

test system: EKVX NSCLC; assay: NCI tumour cell line growth inhibition, 48 h
# key: entry, value: TGI

Look at this compound and give its reported TGI. CCN(CC)P1(=S)Oc2ccc3ccccc3c2-c2c(ccc3ccccc23)O1 > 100 µM

One more compound: C[Si](C)(C)/C(Br)=C\CCN1C(=O)CCC1O (centres undefined) > 100 µM

One more compound: CC(=O)c1nc2ccccc2n1CC(=O)c1ccc([N+](=O)[O-])cc1 > 100 µM

One more compound: COC(=O)c1nc2c(C)c(O)c(O)c([C@H](C)CCC=C(C)C)c2o1 > 100 µM

One more compound: C/C=C/C1(NS(=O)(=O)c2ccc(C)cc2)CCC(C(C)(C)C)CC1 (centres undefined) 64.5 µM

One more compound: CC1OC(OC2C(CO)OC(O[C@H]3CC[C@@]4(C)C(=CC[C@H]5[C@@H]6C[C@@H]7O[C@](O)(CC[C@@H](C)COC8OC(CO)C(O)C(O)C8O)[C@@H](C)[C@@H]7[C@@]6(C)CC[C@@H]54)C3)C(OC3OC(C)C(O)C(O)C3O)C2O)C(O)C(O)C1O (some centres undefined) 57.1 µM

One more compound: N#Cc1nn(-c2ccc(Cl)cc2)c(N)c2c(=N)n3nc(-c4ccccc4)cc3nc12 > 100 µM

One more compound: O=C(NC(=S)NS(=O)(=O)c1ccc(N2N=C3c4ccccc4CC3C2c2cccs2)cc1)c1ccccc1 (centres undefined) > 100 µM

One more compound: COc1ccc(NS(=O)C2CCCCC2)cc1 (centres undefined) > 100 µM

One more compound: CC(C)(C)NCC(O)COc1cccc2[nH]c(C#N)cc12 (centres undefined) > 100 µM

###

tested on: ACHN renal; experiment: NCI tumour cell line growth inhibition, 48 h
Where a SMILES comes first, the peptide text is derived from it. [ ]: non-standard residue; d: D form. The star is where a group is joined. X28 = COC1=CC(=O)N(C(=O)[C@@H](O*)C(C)C)[C@H]1Cc1ccccc1; NMeL = CN[C@@H](CC(C)C)C(=O)O; Hexanoyl = CCCCCC(=O)*
# key: entry, value: TGI

CCOC(=O)[C@H]1Nc2ccc(O)cc2C2c3ccccc3CC21 (stereo partly specified) : > 100 µM
COC(=O)c1c(-c2ccccc2)csc1NC(=O)c1c(-c2ccccc2)noc1C : > 100 µM
Cn1c2ccccc2c2c3c(c4c5ccccc5n(CCCCCC#N)c4c21)C(=O)N(O)C3=O : 1.19 µM
CC(C)[C@]12O[C@H]1[C@@H]1O[C@]13[C@]1(O[C@H]1C[C@H]1c4c(C(=O)c5ccccc5)oc(OC(=O)c5ccccc5)c4CC[C@@]13C)[C@@H]2O : 20.7 µM
COc1ccc(N=NN2CCCC2)cc1 : 29.9 µM
CCCCCC(=O)N[C@H](C(=O)N[C@H](C(=O)N(C)[C@@H](CC(C)C)C(=O)N1CCC[C@H]1C(=O)N1CCC[C@H]1C(=O)O[C@H](C(=O)N1C(=O)C=C(OC)[C@@H]1Cc1ccccc1)C(C)C)C(C)C)C(C)C (Hexanoyl-VV[NMeL]PP-X28) : > 100 µM

Look at this compound and give its reported TGI. Cc1ccc(S(=O)(=O)N2CCCCC2CCO)cc1 (stereo unspecified) > 100 µM

One more compound: O=Nc1c(-c2cccc([N+](=O)[O-])c2)nc2ncccn12 23.2 µM

One more compound: COc1ccc2c(c1)CC[C@@H]1C2CC[C@]2(C)OC(=O)CCC12 (stereo partly specified) > 100 µM

One more compound: C=C1C(=O)O[C@H]2[C@H]1CC/C(COC(=O)CCC(=O)OC/C1=C/CC[C@@]3(C)O[C@H]3[C@H]3OC(=O)C(=C)[C@@H]3CC1)=C\CC[C@@]1(C)O[C@@H]21 2.03 µM

One more compound: CCc1nnc2sc(-c3ccc(-c4ccc(Cl)cc4Cl)o3)nn12 > 100 µM

###

# key: entry, value: TGI
tested on: OVCAR-5 ovarian; assay: NCI tumour cell line growth inhibition, 48 h

Answered examples (10):
Cc1cc(SCC(=O)c2ccc(Br)cc2)cc(C)[o+]1 : 69.9 µM
CC(=O)C1=CC=C/C1=N\Nc1ccccc1 : 19.7 µM
CC(O)CN(CCN(CC(C)O)CC(C)O)CC(C)O.O=[N+]([O-])O.[Cu+2] (stereo not drawn) : > 100 µM
CCCCCCCCSC1=CC(=O)C(OC)=C(OC)C1=O : 16.7 µM
COc1ccc(N=NN2CCCC2)cc1 : > 100 µM
CN(C)CCn1cc(-c2ccc3c(Nc4ccc(CC(=O)Nc5cccc(F)c5)cc4)ncnc3c2)cn1 : 4.26 µM
Cc1c(Cl)cccc1NC(=O)C(=O)C1C(=O)NC(=O)NC1=O : > 100 µM
CC1=C(C)C(=O)C(C(C)C2=C(C)C(=O)C(C)=C(C)C2=O)=C(C)C1=O : > 100 µM
CC(C)(C)CC(C)(C)Cc1ccc(OCCOCC[N+](C)(C)Cc2ccccc2)cc1 : 15.8 µM
Cc1ccccc1NC(=O)c1[nH]c(=S)nc(N)c1-c1ccccc1C : > 100 µM

Look at this compound and give its reported TGI. CCc1nnc2sc(-c3ccc(-c4ccc(Cl)cc4Cl)o3)nn12 > 100 µM

One more compound: O=C(CC1C(=O)Nc2ccccc2S1=O)Nc1cccc(Cl)c1 (stereo not drawn) > 100 µM

One more compound: CCCCOC(=O)N[C@H]1CCc2cc(OC)c(OC)c(OC)c2-c2ccc(SC)c(=O)cc21 91.8 µM

One more compound: OC1(c2ccc(Cl)cc2)c2ccccc2C2=Nc3ccccc3CN21 (stereo not drawn) > 100 µM

One more compound: COc1ccc(/C=C(/C(=O)N2CCNCC2)c2cc(OC)c(OC)c(OC)c2)cc1O > 100 µM

One more compound: Cc1[nH]n(C(=O)c2ccccc2O)c(=O)c1/C=C1\C(=O)C=Cc2ccccc21 > 64.9 µM

One more compound: CO/N=C1/c2cc(OC)ccc2-c2c(NOC)nc3ccccc3c21 71.6 µM

One more compound: CCN(CCCl)CCNc1c2ccccc2nc2ccc(OC)cc12 4.04 µM

One more compound: Cc1ccc(S(=O)(=O)N2CCCCC2CCO)cc1 (stereo not drawn) > 100 µM

###

test system: SN12C renal; assay: NCI tumour cell line growth inhibition, 48 h
Please enter rule met where TGI is greater than or equal to 30 µM, and rule not met where it is lower.

Some entries whose results are on file:
CCCCCCc1cc(C=O)sc1-c1ccc(-c2sc(-c3ccc(-c4ccc(-c5cc(CCCCCC)c(-c6ccc(-c7sc(C=O)cc7CCCCCC)s6)s5)s4)s3)cc2CCCCCC)s1 : rule met
O=Nc1c(-c2cccc([N+](=O)[O-])c2)nc2ncccn12 : rule met
COCOc1cc(OC)ccc1C=O : rule met
Cc1ccc(Cl)cc1Nc1nc(C(F)(F)F)ccc1C(=O)Oc1ccc(Cl)cc1 : rule met
Cc1cc(SCC(=O)c2ccc(Br)cc2)cc(C)[o+]1 : rule met
O=C(Nc1ccccc1Cl)c1ccc(NC2=C(Cl)C(=O)N(Cc3ccccc3)C2=O)cc1 : rule met
C=C(C)C1CC2=C(C(=O)OC)C=C(O2)C(C(=C)C)[C@@H]2OC(=O)/C(=C\C1O)[C@H]2N(C)C (stereo not given in full) : rule not met
COC(=O)C1Cc2c([nH]c3ccccc23)C=N1 (stereo not given) : rule met
CC(=O)OC(C)(C)C1CCC(C)(C(O)COc2ccc(CCNC(=O)c3ccccc3)cc2)O1 (stereo not given) : rule met
CC(=O)OCCOCNC(=S)N/N=C(\C)c1ccco1 : rule met

Record CC(C)(C)CC(C)(C)Cc1ccc(OCCOCC[N+](C)(C)Cc2ccccc2)cc1 ; criterion: TGI no lower than 30 µM. Met? rule not met

One more compound: C[Si](C)(C)/C(Br)=C\CCN1C(=O)CCC1O (stereo not given) rule met

One more compound: COC(=O)c1oc2c(C(=O)/C=C/c3ccc(OC)cc3)c(OCCCN3CCCCC3)ccc2c1C rule not met

One more compound: CCOc1ccc(N=NC2C(=O)N(C(=O)CC(=O)Nc3ccc(Cl)cc3)N=C2C)cc1 (stereo not given) rule met

One more compound: Nc1nc(Cl)nc2c1ncn2C1O[C@H](CO)[C@@H](O)[C@@H]1F (stereo not given in full) rule met

One more compound: Cc1cccc(Nc2cn(CCOc3ccccc3)c(=O)[nH]c2=O)c1 rule met
